SYSTEM UNDER TEST: Human leukocyte elastase (HLE) (Homo sapiens)
Construct: purchased Elastin Products, St. Louis, Mo
TEST NAME: Spectrophotometric assay of HLE inactivation (in vitro)
Format: biochemical
CONDITIONS: Table IV, derivatives of phenylalanine; read-out: kobsd /[I], inhibition of leukocyte elastase
kinact/KI below 1000 M⁻¹ s⁻¹ gives n; kinact/KI at or above it gives y.

Previously resolved entries follow.
[
  {
    "COMPOUND": "COC(=O)[C@H](Cc1ccccc1)NC(=O)n1ccccc1=O [Compound 29]",
    "CATEGORY LABEL": "y"
  },
  {
    "COMPOUND": "COC(=O)C(Cc1cccc(C(F)(F)F)c1)NC(=O)S(=O)(=O)O (centres unmarked) [Compound 32]",
    "CATEGORY LABEL": "n"
  },
  {
    "COMPOUND": "COC(=O)[C@H](Cc1ccccc1)NC(=O)S(=O)(=O)O [Compound 27]",
    "CATEGORY LABEL": "n"
  },
  {
    "COMPOUND": "COC(=O)[C@H](Cc1ccccc1)NC(=O)n1ccnc1 [Compound 28]",
    "CATEGORY LABEL": "y"
  },
  {
    "COMPOUND": "COC(=O)[C@H](Cc1ccccc1)NC(=O)ON1C(=O)CCC1=O [Compound 30]",
    "CATEGORY LABEL": "y"
  }
]

Request: Exam item: decide whether the reported kinact/KI for COC(=O)C(Cc1cccc(F)c1)NC(=O)n1ccnc1 (centres unmarked) [Compound 33] is at least 1000 M⁻¹ s⁻¹.
Result: n

Request: Exam item: decide whether the reported kinact/KI for COC(=O)C(Cc1cccc(C(F)(F)F)c1)NC(=O)n1ccnc1 (centres unmarked) [Compound 34] is at least 1000 M⁻¹ s⁻¹.
Result: y

Request: Exam item: decide whether the reported kinact/KI for COC(=O)C(Cc1cccc(F)c1)NC(=O)S(=O)(=O)O (centres unmarked) [Compound 31] is at least 1000 M⁻¹ s⁻¹.
Result: n

###

SYSTEM UNDER TEST: Human leukocyte elastase (HLE) (Homo sapiens)
Construct: purchased Elastin Products, St. Louis, Mo
Sequence (P08246 30-267): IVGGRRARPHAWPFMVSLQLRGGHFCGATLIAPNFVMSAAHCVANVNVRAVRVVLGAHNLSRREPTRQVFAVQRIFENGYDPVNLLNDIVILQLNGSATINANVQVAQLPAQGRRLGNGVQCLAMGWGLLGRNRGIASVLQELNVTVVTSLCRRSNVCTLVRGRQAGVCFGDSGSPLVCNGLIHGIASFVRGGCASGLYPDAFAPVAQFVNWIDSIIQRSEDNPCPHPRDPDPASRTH
TEST NAME: Spectrophotometric assay of HLE inactivation (in vitro)
Type: biochemical
CONDITIONS: Table II monopotassium sulfonate salts; read-out: k2 /Ki (HLE)
ENDPOINT: kinact/KI (M⁻¹ s⁻¹)
Give bare numbers, in M⁻¹ s⁻¹.

[
  {
    "COMPOUND": "COC(=O)[C@H](Cc1ccccc1)NC(=O)S(=O)(=O)[O-].[K+] [Compound 9, Table II, Monopotassium Salt]",
    "kinact/KI / M⁻¹ s⁻¹": 530
  },
  {
    "COMPOUND": "CCC[C@H](NC(=O)S(=O)(=O)O)C(=O)OC [Compound 4, Table II]",
    "kinact/KI / M⁻¹ s⁻¹": 860
  }
]

Each compound below has a reported value. Please supply its kinact/KI.
1. COC(=O)[C@H](CCSC)NC(=O)S(=O)(=O)O [Compound 8, Table II]
2. COC(=O)[C@@H](NC(=O)S(=O)(=O)O)C(C)C [Compound 3, Table II]

Result:
260
800

Each compound below has a reported value. Please supply its kinact/KI.
1. CCCC[C@H](NC(=O)S(=O)(=O)O)C(=O)OC [Compound 6, Table II]
2. COC(=O)[C@H](CC(C)C)NC(=O)S(=O)(=O)O [Compound 7, Table II]

Result:
920
260
